# Measurement protocol: qHTS of pediatric cancer cell lines to identify multiple opportunities for drug repurposing: Confirmatory screen for A673 cells (AID 1347110);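 further: cells exposed to compound for 48 h before the viability read; nearly all actives have a fitted effect of over 65% in size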; further: potency means the concentration at half of the fitted maximal effect
# Details: A673 Ewing sarcoma cell viability; series mostly up to 45.9 µM
Inconclusive results are not listed. The source made the active and inactive calls. The call rests on the fitted dose curve; in most records, active means well fitted cell-killing curve with a large enough effect; inconclusive means small, poorly fitted or top-dose-only effect; inactive means flat fitted curve, though single readings scatter.
Measurement kind: Potency

Structure smiles string | Result
CCN1/C(=C/C=C/c2sc3ccccc3[n+]2CC)Sc2ccccc21 | 456 nM (active)
C=C[C@@]1(C)CC(=O)[C@]2(O)[C@@]3(C)[C@@H](O)CCC(C)(C)[C@@H]3[C@H](O)[C@H](OC(C)=O)[C@@]2(C)O1 | inactive
CN(C)C(=O)Nc1ccc(Cl)c(Cl)c1 | inactive
C[C@H]1O[C@@H](O[C@H]2CC[C@@]3(C)[C@H](CC[C@@H]4[C@@H]3C[C@@H](O)[C@]3(C)[C@@H](C5=CC(=O)OC5)CC[C@]43O)C2)C[C@H](O)[C@@H]1O[C@H]1C[C@H](O)[C@H](O[C@H]2C[C@H](O)[C@H](O[C@@H]3O[C@H](CO)[C@@H](O)[C@H](O)[C@H]3O)[C@@H](C)O2)[C@@H](C)O1 | 737 nM (active)
CCCCCCCCCCC[C@@H](C[C@@H]1OC(=O)[C@H]1CCCCCC)OC(=O)[C@H](CC(C)C)NC=O | inactive

* * *

# Target or system: Furin (Homo sapiens)
# Measurement protocol: Furin counterscreen qHTS for Zika virus inhibitors (AID 1347149); further: nearly all actives have a fitted effect of over 70% in size
# Details: furin enzymatic counterscreen, fluorogenic substrate; series mostly up to 57.5 µM
Inconclusive results are not listed. Activity calls are given as the source filed them. Calls come from the whole dose curve; as a rule, active = well fitted inhibition curve with a large enough effect; inconclusive = small, poorly fitted or top-dose-only effect; inactive = no such curve, though single readings can be large or run the other way.
Outcome codes: class 1 (active), class 0 (inactive)

Structure smiles string | Class name
O[C@@H](c1cc(C(F)(F)F)nc2c(C(F)(F)F)cccc12)[C@H]1CCCCN1 | class 0
CC(C)=CCOc1ccc(/C=C/C(=O)c2ccc(OCC=C(C)C)cc2OCC(=O)O)cc1 | class 1
CCc1oc2ccccc2c1C(=O)c1cc(Br)c(O)c(Br)c1 | class 1
CCC(CC)(CC(=O)Nc1cccc(/C=C/c2nc(C3CCC3)cs2)c1)C(=O)O | class 1

* * *

# Test system: HEK293
# Measurement protocol: Cytotoxic Profiling of Annotated Libraries Using Quantitative High-Throughput Screening (AID 1296008); further: on the % scale 0 is the no-effect control and ±100 the full control effect; nearly all actives have a fitted effect of over 60% in size
# Details: Five cell lines viability, CellTiter-Glo ATP luminescence, 48-72 h; stronger effect = lower value
Inconclusive results are not listed.
Measurement kind: max response (%)

Compound | Result unit | Result
Cc1cccc(C)c1NC(=O)CN1CCCCCC1 | % | 2.2
CC(C)Nc1cccnc1N1CCN(C(=O)c2cc3cc(NS(C)(=O)=O)ccc3[nH]2)CC1 | % | -14.8
Cc1cc(C)cc(OCC2CNC(=O)O2)c1 (configuration not stated) | % | 3.06
CCOCCn1c(N2CCCN(C)CC2)nc2ccccc21 | % | -5.73
O=C(NCCc1c[nH]c2ccccc12)c1cccnc1 | % | -10.1
CCOC(=O)c1ccc(N)cc1 | % | -24
CCc1oc2ccccc2c1C(=O)c1cc(I)c(O)c(I)c1 | % | -23.3
OCc1ccccn1 | % | -1.39
CC(=O)N[C@@H](CCC(=O)O)C(=O)O | % | -7.38
O=C1C(CCS(=O)c2ccccc2)C(=O)N(c2ccccc2)N1c1ccccc1 (configuration not stated) | % | -3.91
CCOc1ccccc1OCCN[C@H](C)Cc1ccc(OC)c(S(N)(=O)=O)c1 | % | -5.03
CCCCCCCCOc1ccc(C(=O)c2ccccc2)c(O)c1 | % | -1.87

* * *

# Target or system: Glutathione peroxidase 1 (Homo sapiens)
# Measurement protocol: Primary qHTS Assay for Inhibitors of Recombinant Selenoprotein Glutathione Peroxidase 1 (GPX1) (AID 1845191); further: nearly all actives have a fitted effect of over 65% in size
# Details: recombinant GPX1, GR-coupled NADPH fluorescence, 15 min; series mostly up to 48.8 µM
# Experimental: Assay Provider: Elias S.J. Arner MD PhD. Department of Medical Biochemistry and Biophysics Karolinska Institutet, Solna, Stockholm, Sweden […] 5; Detection; Fluorescence; ViewLux microplate reader, excitation 340 nm and emission 450 nm. […] 7; Detection; Fluorescence; ViewLux microplate reader, excitation 340 nm and emission 450 nm. […] 5. Initial fluorescence readout (t=0) at 340/450 nm was measured using a ViewLux multimodal detector (PerkinElmer, Waltham, MA). […]
Records with an inconclusive call do not appear. Active and inactive are the calls of the source. The call rests on the fitted dose curve; in most records, active means well fitted inhibition curve with a large enough effect; inconclusive means small, poorly fitted or top-dose-only effect; inactive means flat fitted curve, though single readings scatter.
Outcomes: y for active, n for inactive

Compound | Target or system | Class name
CC(C)(C)NC[C@H](O)COc1nsnc1N1CCOCC1 | Glutathione peroxidase 1 (Homo sapiens) | n
CC[C@]12CCCN3CCc4c(n(c5ccccc45)C(=O)C1)[C@@H]32 | Glutathione peroxidase 1 (Homo sapiens) | n
COC(=O)C(c1ccccc1Cl)N1CCc2sccc2C1 (stereo unspecified) | Glutathione peroxidase 1 (Homo sapiens) | n
COc1cc(C)nc(-n2nc(C)cc2OC)n1 | Glutathione peroxidase 1 (Homo sapiens) | n
NS(=O)(=O)c1cc(C(=O)O)cc(N2CCCC2)c1Oc1ccccc1 | Glutathione peroxidase 1 (Homo sapiens) | n
C#C[C@]1(O)CC[C@H]2[C@@H]3CCC4=Cc5oncc5C[C@]4(C)[C@H]3CC[C@@]21C | Glutathione peroxidase 1 (Homo sapiens) | n
CCCCCN=C(N)N/N=C/c1c[nH]c2ccc(OC)cc12 | Glutathione peroxidase 1 (Homo sapiens) | n
NC1CCN(c2nc3c(cc2F)c(=O)c(C(=O)O)cn3-c2ccc(F)cc2F)C1 (stereo unspecified) | Glutathione peroxidase 1 (Homo sapiens) | n
CCCN(CCc1cccs1)[C@H]1CCc2c(O)cccc2C1 | Glutathione peroxidase 1 (Homo sapiens) | n
CCOC(=O)Nc1ccc2c(c1)N(C(=O)CCN1CCOCC1)c1ccccc1S2 | Glutathione peroxidase 1 (Homo sapiens) | n
CCOC(=O)[C@H](CCc1ccccc1)N[C@@H](C)C(=O)N1[C@H](C(=O)O)C[C@H]2CCCC[C@@H]21 | Glutathione peroxidase 1 (Homo sapiens) | n
CC(=O)Nc1ccc(CC(=O)O)cc1 | Glutathione peroxidase 1 (Homo sapiens) | n
CN1CCc2cccc3c2[C@H]1Cc1ccc(O)c(O)c1-3 | Glutathione peroxidase 1 (Homo sapiens) | n
CCOc1ccc(NC(C)=O)cc1 | Glutathione peroxidase 1 (Homo sapiens) | n
CCCCCCCCCCCCOCCOCCOCCOCCOCCOCCOCCOCCOCCO | Glutathione peroxidase 1 (Homo sapiens) | n
CCC(Cc1c(I)cc(I)c(N)c1I)C(=O)O (stereo unspecified) | Glutathione peroxidase 1 (Homo sapiens) | n
Cn1c(=O)c2[nH]c(Br)nc2n(C)c1=O | Glutathione peroxidase 1 (Homo sapiens) | n
C#C[C@]1(OC(C)=O)CC[C@H]2[C@@H]3CCC4=C/C(=N/O)CC[C@@H]4[C@H]3CC[C@@]21CC | Glutathione peroxidase 1 (Homo sapiens) | n
COc1cc(O)c(C(=O)c2ccccc2)cc1S(=O)(=O)O | Glutathione peroxidase 1 (Homo sapiens) | n
COc1ccc(C(=O)c2ccccc2)c(O)c1 | Glutathione peroxidase 1 (Homo sapiens) | n
Cc1ccc(-c2ncc(Cl)cc2-c2ccc(S(C)(=O)=O)cc2)cn1 | Glutathione peroxidase 1 (Homo sapiens) | n
OC1C(O)C(O)C(O)C(O)C1O (stereo unspecified) | Glutathione peroxidase 1 (Homo sapiens) | n
Nc1ccc(C(=O)NCC(=O)O)cc1 | Glutathione peroxidase 1 (Homo sapiens) | n
CCN(CC)CCOC(=O)C1(c2ccccc2)CCCC1 | Glutathione peroxidase 1 (Homo sapiens) | n
O[C@@H](c1cc(C(F)(F)F)nc2c(C(F)(F)F)cccc12)[C@H]1CCCCN1 | Glutathione peroxidase 1 (Homo sapiens) | n
CCN1CCN(C(=O)N[C@@H](C(=O)N[C@@H]2C(=O)N3C(C(=O)O)=C(CSc4nnnn4C)CS[C@H]23)c2ccc(O)cc2)C(=O)C1=O | Glutathione peroxidase 1 (Homo sapiens) | y
Nc1ccc(S(=O)(=O)Nc2cnc3ccccc3n2)cc1 | Glutathione peroxidase 1 (Homo sapiens) | n
CC(=O)O[C@H]1C[C@@H]2CC[C@@H]3[C@H](CC[C@@]4(C)[C@H]3C[C@H]([N+]3(C)CCCCC3)[C@@H]4OC(C)=O)[C@@]2(C)C[C@@H]1N1CCCCC1 | Glutathione peroxidase 1 (Homo sapiens) | n
CCc1nn(CCCN2CCN(c3cccc(Cl)c3)CC2)c(=O)n1CCOc1ccccc1 | Glutathione peroxidase 1 (Homo sapiens) | n
C[N+]1(CC2COC(c3ccccc3)(C3CCCCC3)O2)CCCCC1 (stereo unspecified) | Glutathione peroxidase 1 (Homo sapiens) | n
C[N+]1(C)CCC(=C(c2ccccc2)c2ccccc2)CC1 | Glutathione peroxidase 1 (Homo sapiens) | n
O=C(Nc1cccc(C2=NCCN2)c1)Nc1cccc(C2=NCCN2)c1 | Glutathione peroxidase 1 (Homo sapiens) | n
CCCCCCCCCCCCSCCOCCO | Glutathione peroxidase 1 (Homo sapiens) | n
CC(C)[C@@H]1CC[C@@H](C)CC1=O | Glutathione peroxidase 1 (Homo sapiens) | n
C[C@@H](O)[C@H]1C(=O)N2C(C(=O)O)=C(S[C@@H]3CN[C@H](CNS(N)(=O)=O)C3)[C@H](C)[C@H]12 | Glutathione peroxidase 1 (Homo sapiens) | n
O=C1C(CCS(=O)c2ccccc2)C(=O)N(c2ccccc2)N1c1ccccc1 (stereo unspecified) | Glutathione peroxidase 1 (Homo sapiens) | n
CCOCCn1c(N2CCCN(C)CC2)nc2ccccc21 | Glutathione peroxidase 1 (Homo sapiens) | n
CCCc1ncc(C[n+]2ccccc2C)c(N)n1 | Glutathione peroxidase 1 (Homo sapiens) | n
N[C@H](C(=O)O)[C@@H](O)c1ccc(O)c(O)c1 | Glutathione peroxidase 1 (Homo sapiens) | n
CC(CNC1CCCCC1)OC(=O)c1ccccc1 (stereo unspecified) | Glutathione peroxidase 1 (Homo sapiens) | n
CC(O)Cn1cnc2c1c(=O)n(C)c(=O)n2C (stereo unspecified) | Glutathione peroxidase 1 (Homo sapiens) | n
O=S(=O)(O)c1ccc(O)cc1 | Glutathione peroxidase 1 (Homo sapiens) | n
CC(C)(C)NCC(O)COc1cccc2c1C[C@H](O)[C@H](O)C2 (stereo partly specified) | Glutathione peroxidase 1 (Homo sapiens) | n
NS(=O)(=O)c1ccc(Cl)c(S(N)(=O)=O)c1 | Glutathione peroxidase 1 (Homo sapiens) | n
c1ccc(CC2=NCCN2)cc1 | Glutathione peroxidase 1 (Homo sapiens) | n
CN(CCCN1c2ccccc2CCc2ccccc21)CC(=O)c1ccc(Cl)cc1 | Glutathione peroxidase 1 (Homo sapiens) | n
